All values here come from patent US10392404B2.

- Assay target: C-RAF (Homo sapiens, UniProt P04049, Y340E/Y341E)
- Construct: His tag (implied by nickel chromatography) (cleaved yes); StrepII tag (cleaved yes); MEK1 substrate from E. coli
- Sequence (P04049 whole entry Y340E/Y341E): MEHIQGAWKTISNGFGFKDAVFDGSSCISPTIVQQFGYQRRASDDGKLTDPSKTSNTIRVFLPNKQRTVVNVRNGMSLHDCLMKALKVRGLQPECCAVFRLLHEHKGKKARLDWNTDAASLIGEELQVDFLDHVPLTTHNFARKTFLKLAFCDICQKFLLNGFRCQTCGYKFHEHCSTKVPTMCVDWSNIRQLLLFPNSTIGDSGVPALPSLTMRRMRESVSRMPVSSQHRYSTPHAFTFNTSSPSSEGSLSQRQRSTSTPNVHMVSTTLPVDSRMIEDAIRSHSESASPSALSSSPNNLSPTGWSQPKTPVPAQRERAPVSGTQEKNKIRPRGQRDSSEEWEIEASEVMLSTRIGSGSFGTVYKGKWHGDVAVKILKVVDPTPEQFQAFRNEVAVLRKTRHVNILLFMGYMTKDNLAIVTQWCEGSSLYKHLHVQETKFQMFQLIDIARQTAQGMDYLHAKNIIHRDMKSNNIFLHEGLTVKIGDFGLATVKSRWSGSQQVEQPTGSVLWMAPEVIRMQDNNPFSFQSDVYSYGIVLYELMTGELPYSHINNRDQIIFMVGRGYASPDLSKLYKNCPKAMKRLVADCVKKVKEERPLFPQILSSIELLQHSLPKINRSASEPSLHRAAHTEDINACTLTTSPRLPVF
- Sequence (P63104 whole entry partner): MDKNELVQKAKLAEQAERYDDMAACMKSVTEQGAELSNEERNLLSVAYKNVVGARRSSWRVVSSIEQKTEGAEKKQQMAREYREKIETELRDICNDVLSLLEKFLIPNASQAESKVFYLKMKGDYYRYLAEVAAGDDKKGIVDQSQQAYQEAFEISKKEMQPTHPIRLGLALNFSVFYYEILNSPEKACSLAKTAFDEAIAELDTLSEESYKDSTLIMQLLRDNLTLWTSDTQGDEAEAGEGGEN
- Experiment: In vitro Raf activity determination (Alpha Screen, biotinylated kinase-dead MEK1 substrate), C-Raf
- Study conditions: c-Raf approximately 4 nM; ATP 1 μM; pre-incubation 60 minutes; reaction 1 hour at room temperature
Experimental endpoint: IC50 (nM)

See these solved cases before continuing.
# Smiles text, Uom, IC50
data = [
    ("Cc1ccc(NC(=O)c2cccc(C(F)(F)F)c2)cc1-c1cc(C#N)c(N)nc1C", "nM", 1.08),
    ("Cc1ccc(NC(=O)c2cnnc(C(F)(F)F)c2)cc1-c1cnc(NC2CCOCC2)c(C#N)c1", "nM", 0.177),
    ("Cc1ncc(NC(=O)c2ccnc(C(C)(C)C#N)c2)cc1-c1cnc(-c2cccnc2)c(C#N)c1", "nM", 2.66),
]

I: Cc1ncc(NC(=O)c2cnnc(C(F)(F)F)c2)cc1-c1cnc(N2CCOCC2)c(C#N)c1
II: CCn1cc(C(=O)Nc2ccc(C)c(-c3cnc(N4CC(C)(O)C4)c(C#N)c3)c2)cc(C(F)(F)F)c1=O
Larger number for IC50: I , or II ? Please indicate the selected item by its label.
II

P: Cc1ncc(NC(=O)c2ccnc(C(F)(F)F)c2)cc1-c1cnc(N2CCS(=O)(=O)CC2)c(C#N)c1
Q: Cc1ccc(NC(=O)c2cnnc(C(C)(C)F)c2)cc1-c1cnc(N2CC(C)(O)C2)c(C#N)c1
Field: lower recorded IC50 (choose P or Q ) Please indicate the selected item by its label.
Q
(Q: 0.285 nM, P: 0.438 nM)

P: Cc1ccc(NC(=O)c2cc(C3CC3)nn2C)cc1-c1cnc(N(C)C)c(C#N)c1
Q: Cc1ncc(NC(=O)c2cc(C3CC3)on2)cc1-c1cnc(N(C)C)c(C#N)c1
Field: lower recorded IC50 (choose P or Q ) Please indicate the selected item by its label.
Q
(Q: 2.16 nM, P: 4.84 nM)

====

- Assay target: b-Raf (V600E) (Homo sapiens, UniProt P15056, V600E)
- Sequence (P15056 whole entry V600E): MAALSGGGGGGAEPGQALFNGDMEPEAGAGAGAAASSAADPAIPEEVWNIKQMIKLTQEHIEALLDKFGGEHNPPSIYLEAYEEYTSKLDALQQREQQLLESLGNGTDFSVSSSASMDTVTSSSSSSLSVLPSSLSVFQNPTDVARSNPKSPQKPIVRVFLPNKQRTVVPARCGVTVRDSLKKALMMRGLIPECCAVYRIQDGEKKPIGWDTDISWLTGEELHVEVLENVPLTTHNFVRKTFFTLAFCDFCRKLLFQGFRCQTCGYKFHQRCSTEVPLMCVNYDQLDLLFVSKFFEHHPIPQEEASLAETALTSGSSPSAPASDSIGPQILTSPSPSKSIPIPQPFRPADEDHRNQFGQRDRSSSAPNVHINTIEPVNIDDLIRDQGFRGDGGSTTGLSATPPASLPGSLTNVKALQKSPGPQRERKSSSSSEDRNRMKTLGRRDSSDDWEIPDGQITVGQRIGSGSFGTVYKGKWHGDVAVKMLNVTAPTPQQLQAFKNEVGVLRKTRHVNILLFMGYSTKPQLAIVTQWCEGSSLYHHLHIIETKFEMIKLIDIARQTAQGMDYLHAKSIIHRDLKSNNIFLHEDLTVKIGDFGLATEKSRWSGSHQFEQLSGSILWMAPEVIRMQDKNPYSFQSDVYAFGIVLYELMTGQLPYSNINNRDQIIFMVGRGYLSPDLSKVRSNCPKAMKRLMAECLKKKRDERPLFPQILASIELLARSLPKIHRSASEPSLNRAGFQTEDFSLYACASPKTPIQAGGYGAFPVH
- Experiment: In vitro Raf activity determination (Alpha Screen, biotinylated kinase-dead MEK1 substrate), B-Raf
- Study conditions: b-Raf (V600E) approximately 4 pM; ATP 10 μM; pre-incubation 60 minutes; reaction 3 hours at room temperature
pIC50: −log10 of the molar value.
Experimental endpoint: pIC50

# Molecule, pIC50
measured = [
    ("Cc1ccc(NC(=O)c2ccnc(C3(C#N)CC3)c2)cc1-c1cnc(N2CCOCC2)c(C#N)c1", 9.30),
]

P: COCCNc1ncc(-c2cc(NC(=O)c3ccnc(C(C)(C)O)c3)cnc2C)cc1C#N
Q: Cc1ccc(NC(=O)c2ccnc(S(C)(=O)=O)c2)cc1-c1cnc(N(C)C)c(C#N)c1
R: Cc1ccc(NC(=O)c2cc(C(C)(C)O)ccn2)cc1-c1cnc(N2CCOCC2)c(C#N)c1
S: Cc1ncc(NC(=O)c2ccnc(C(C)(C)C#N)c2)cc1-c1cnc(NC2CCOC2)c(C#N)c1 (centres unmarked) [Example 77]
Arrange the 4 molecules from largest to smallest pIC50. The labels, placed in the requested order, form the answer.
Q, R, S, P
(Q: 9.15, R: 8.65, S: 8.03, P: 7.44)
